- Tested on: MV4-11
- experimental.protocol: Antiproliferative activity against human MV411 cells incubated for 3 days by Cell-Titer 96 aqueous one solution cell proliferation assay
- Type: functional, cell-based
- measurement.context: MV4-11, 72 h
IC50 values for the compounds below.

[[record]]
line_notation = "O=C(NCc1cccc(B(O)O)c1)c1ccccc1Nc1ccc([N+](=O)[O-])c2nonc12"
measurement_kind = "IC50"
measurement = "> 30 µM"

[[record]]
line_notation = "CCc1ccc(/C=C2\\SC(=O)N(CCNC(=O)[C@H]3C[C@@H]4C[C@H]3[C@@H](O)[C@H]4O)C2=O)cc1"
measurement_kind = "IC50"
measurement = "> 30 µM"


# input for lookup
Please report the recorded IC50 for O=C(NCc1ccc(B(O)O)cc1)c1ccccc1Nc1ccc([N+](=O)[O-])c2nonc12 .
> 30 µM

###

- target.or.system: Myc proto-oncogene protein (Homo sapiens, UniProt P01106)
- Sequence (P01106 whole entry): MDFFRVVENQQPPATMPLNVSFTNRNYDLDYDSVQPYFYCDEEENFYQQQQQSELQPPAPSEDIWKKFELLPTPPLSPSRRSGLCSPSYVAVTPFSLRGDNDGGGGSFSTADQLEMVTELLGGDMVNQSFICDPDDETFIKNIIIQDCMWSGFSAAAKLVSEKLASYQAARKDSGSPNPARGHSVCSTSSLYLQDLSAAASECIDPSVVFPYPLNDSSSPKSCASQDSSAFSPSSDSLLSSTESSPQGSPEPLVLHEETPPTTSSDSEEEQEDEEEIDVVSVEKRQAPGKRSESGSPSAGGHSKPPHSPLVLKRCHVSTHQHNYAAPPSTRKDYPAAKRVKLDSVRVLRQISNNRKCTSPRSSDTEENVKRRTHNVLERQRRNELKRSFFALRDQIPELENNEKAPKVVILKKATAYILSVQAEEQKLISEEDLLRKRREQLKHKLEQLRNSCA
- experimental.protocol: Binding affinity to recombinant full-length DDK-tagged human c-Myc expressed in HEK293T cells assessed as inhibition of Max/c-Myc protein-protein interaction incubated for 1 hr by ELISA
- Type: cell-based
pIC50: −log10 of the molar value.
Measured pIC50 by item

Field: example entries. Status: answers known.
[[record]]
line_notation = "O=C(NCc1ccc(B(O)O)cc1)c1ccccc1Nc1ccc([N+](=O)[O-])c2nonc12"
measurement = "< 4.52"

[[record]]
line_notation = "NC(=O)c1ccccc1Nc1ccc([N+](=O)[O-])c2nonc12"
measurement = "< 4.52"


We now examine a further molecule.
Recorded pIC50 for CCc1ccc(/C=C2\SC(=O)N(CC[C@H]3C[C@@H]4C[C@H]3[C@@H](O)[C@H]4O)C2=O)cc1 with Myc proto-oncogene protein (Homo sapiens, UniProt P01106), please?
< 4.52

src = ChEMBL document CHEMBL4418302
